Let's look at some binders and their measured kon.
# Experimental system: T1, human PCSK9 (proprotein convertase subtilisin kexin type 9) (human, UniProt Q8NBP7 31-692)
# T1 construct: Directly immobilized (SPR ProteOn), biotinylated (BLI), or in solution, depending on the assay; also called hPCSK9
# T1 sequence (Q8NBP7 31-692 limits assumed): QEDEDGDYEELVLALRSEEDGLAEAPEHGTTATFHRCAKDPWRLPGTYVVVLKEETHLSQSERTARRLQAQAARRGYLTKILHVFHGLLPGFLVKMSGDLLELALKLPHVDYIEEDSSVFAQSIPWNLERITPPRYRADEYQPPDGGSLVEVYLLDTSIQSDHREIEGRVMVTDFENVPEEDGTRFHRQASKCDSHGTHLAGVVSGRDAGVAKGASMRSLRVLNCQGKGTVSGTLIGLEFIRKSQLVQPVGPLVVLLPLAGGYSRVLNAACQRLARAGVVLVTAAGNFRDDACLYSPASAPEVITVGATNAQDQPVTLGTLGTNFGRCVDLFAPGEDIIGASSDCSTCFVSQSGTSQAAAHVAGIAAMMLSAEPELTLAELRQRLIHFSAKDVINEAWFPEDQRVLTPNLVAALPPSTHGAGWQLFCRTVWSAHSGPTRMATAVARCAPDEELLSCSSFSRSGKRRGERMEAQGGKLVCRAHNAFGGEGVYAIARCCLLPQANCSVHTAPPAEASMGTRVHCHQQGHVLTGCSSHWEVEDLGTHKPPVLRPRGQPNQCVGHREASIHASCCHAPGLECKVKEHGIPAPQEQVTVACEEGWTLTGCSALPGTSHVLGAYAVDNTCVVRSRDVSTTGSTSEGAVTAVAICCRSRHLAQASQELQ
# Assay notes: BLI, biotinylated hPCSK9 on sensor tips
Endpoint name: kon

Binder	Assay value
2382D03 (designed binder, Anti-PCSK9 Adnectin, His6-tagged) MGVSDVPRDLEVVAATPTSLLISWDAPADEAYGYYRITYGETGGNSPVQEFTVPVSKGTATISGLKPGVDYTITVYAVEFDFPGAGYYHRPISINYRTEIDKPSQHHHHHH	354000 M⁻¹ s⁻¹
2382C09 (designed binder, Anti-PCSK9 Adnectin, His6-tagged) MGVSDVPRDLEVVAATPTSLLISWDAPAEGYGYYRITYGETGGNSPVQEFTVPVSKGTATISGLKPGVDYTITVYAVEFDFPGSGYYHRPISINYRTEIDKPSQHHHHHH	349000 M⁻¹ s⁻¹
2382B10 (designed binder, Anti-PCSK9 Adnectin, His6-tagged) MGVSDVPRDLEVVAATPTSLLISWDAPADAYGYYRITYGETGGNSPVQEFTVPSSKGTATISGLKPGVDYTITVYAVEYDFPGSGYYHRPISINYRTEIDKPSQHHHHHH	394000 M⁻¹ s⁻¹
2381D04 (designed binder, Anti-PCSK9 Adnectin, His6-tagged) MGVSDVPRDLEVVAATPTSLLISWEPFSRLPGGGEYYRITYGETGGNSPLQQFTVPGSKGTATISGLKPGVDYTITVYAVEFPYDHSGYYHRPISINYRTEIDKPSQHHHHHH	266000 M⁻¹ s⁻¹
